I'd appreciate it if you could supply inhibition values for the items below.
target: Tyrosine-protein kinase Lck (Homo sapiens) (UniProt P06239); experiment: Inhibition of LCK (unknown origin) at 0.5 uM relative to control
Sequence (P06239 2-509 limits assumed): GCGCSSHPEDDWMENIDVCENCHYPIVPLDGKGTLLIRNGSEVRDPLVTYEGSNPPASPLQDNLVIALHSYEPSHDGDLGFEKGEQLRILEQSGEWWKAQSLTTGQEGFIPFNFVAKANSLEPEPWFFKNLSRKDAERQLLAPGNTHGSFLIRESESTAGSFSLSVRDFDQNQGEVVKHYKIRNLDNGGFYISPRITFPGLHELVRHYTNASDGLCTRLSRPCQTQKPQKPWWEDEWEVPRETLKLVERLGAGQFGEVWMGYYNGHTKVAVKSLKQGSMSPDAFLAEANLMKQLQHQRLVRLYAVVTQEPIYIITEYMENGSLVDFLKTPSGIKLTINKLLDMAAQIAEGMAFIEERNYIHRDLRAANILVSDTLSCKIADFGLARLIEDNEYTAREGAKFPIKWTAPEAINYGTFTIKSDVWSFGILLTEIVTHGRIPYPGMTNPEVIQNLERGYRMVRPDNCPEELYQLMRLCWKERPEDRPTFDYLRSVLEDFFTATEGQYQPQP
Kindly answer with a numeric value in %, unit omitted.

Req: For the molecule "CNC(=O)c1cc(Oc2ccc(NC(=O)c3nc(C(F)(F)F)sc3-c3ccc(F)cc3)cc2)ccn1" , what inhibition is on record?
Resp: 58

Req: For the molecule "CNC(=O)c1cc(Oc2ccc(NC(=O)c3nc(NC)sc3-c3ccc(F)cc3)cc2)ccn1" , what inhibition is on record?
Resp: 49

Req: For the molecule "CNC(=O)c1cc(Oc2ccc(NC(=O)c3nc(SC)oc3-c3ccc(F)cc3)cc2F)ccn1" , what inhibition is on record?
Resp: 71

Req: For the molecule "CNC(=O)c1cc(Oc2ccc(NC(=O)c3nc(SC)[nH]c3-c3ccc(F)cc3)cc2)ccn1" , what inhibition is on record?
Resp: 84

Req: For the molecule "CNC(=O)c1cc(Oc2ccc(NC(=O)c3nc(SC)oc3-c3ccc(F)cc3)cc2)ccn1" , what inhibition is on record?
Resp: 77

Req: For the molecule "CNC(=O)c1cc(Oc2ccc(NC(=O)c3nc(SC)n(CCN(C)C)c3-c3ccc(F)cc3)cc2)ccn1" , what inhibition is on record?
Resp: 28

Every entry's value here was drawn from ChEMBL document CHEMBL4806968.
